# credit: PubChem BioAssay AID1159580

assay_comment: chemical genetic growth profiling, strain panel (AID 1159580);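 note: tested at 20 µM; growth read once vehicle control cultures reached saturation at 30 °C; 1 = growth at the plate median or of vehicle wells; lower values mean less growth of the strain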
setup_conditions: S. cerevisiae deletion strains, growth OD, locus YJL157C, strain FAR1, active compounds read low
The whole screen tested about 5,500 compounds, of which about 2,000 (36%) were called active. Inconclusive results (about 18%) are left out. Some of the results follow.
// normalized growth lookup, one value per entry

chem_smiles | normalized growth
O=[N+]([O-])c1ccc(-c2noc(-c3ccno3)n2)o1 | 0.107
N/C(CCSc1ccc(Cl)cc1)=N/OC(=O)Nc1ccc(Cl)cc1 | 0.371
CCCN(CCC)C(=S)NC(=O)c1cccc([N+](=O)[O-])c1 | 0.928
Cc1cc(C(=O)NNS(=O)(=O)c2ccc(F)c(Cl)c2)nn1-c1c(Cl)cc(Cl)cc1Cl | 1.03
O=C(/C=C/c1ccc2c(c1)OCO2)Nc1ccc(Br)cc1 | 0.974
CC(=O)c1ccc(Cl)c(NS(=O)(=O)c2cc(Cl)c(Cl)cc2Cl)c1 | 0.877
C/C(Cc1nnn(-c2cc(C)on2)n1)=N/OC(=O)Nc1ccc(Cl)cc1 | 0.956
O=C(c1csc(-c2ccc(Cl)cc2)c1)N1CCCCC1 | 0.838
Cc1cc(C)cc(Sc2ccc3nnc(-c4ccccc4)n3n2)c1 | 0.982
Cc1ccc(S(=O)(=O)NC(=O)Nc2ccc(Sc3ccccc3)nc2Sc2ccccc2)cc1 | 0.97

----------
assay_comment: chemical genetic growth profiling, strain panel (AID 1159580);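 note: tested at 20 µM; growth read once vehicle control cultures reached saturation at 30 °C; 1 = growth at the plate median or of vehicle wells; lower values mean less growth of the strain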
setup_conditions: S. cerevisiae deletion strains, growth OD, locus YGL086W, strain mad1, active compounds read low
Among all 5,500 compounds or so, about 2,000 (36%) were called active. Roughly 18% stayed inconclusive and do not appear here. The list shows a part of the results.
Response field label takes criterion met when normalized growth is strictly below 1 and criterion not met in all other cases.

compound | class_label
CC1(C)CCC[C@@]2(C)C1[C@@H](O)C[C@]1(C)C2CC[C@@H]2[C@@]3(C)CC[C@H](C(C)(C)O)[C@@H]3CC[C@@]21C (stereo partly drawn) | criterion not met
O=C(O)/C=C/c1ccc(O)c(O)c1 | criterion not met
COc1ccc2c(c1)OC/C(=C/c1ccc(OC)c(OC)c1)C2=O | criterion met
O=c1c(-c2ccc(O)cc2)coc2cc(O)ccc12 | criterion met
COc1ccc(-c2coc3cc(O)ccc3c2=O)cc1 | criterion met
COc1cc([C@@H]2c3cc4c(cc3C(OC3O[C@@H]5COC(C)O[C@H]5[C@H](O)[C@H]3O)C3COC(=O)[C@@H]32)OCO4)cc(OC)c1O (stereo partly drawn) | criterion met
COc1ccc2c(c1)OC/C(=C\c1ccc(OC)c(O)c1)C2=O | criterion met
O=C1C(Cl)=C(Cl)C(=O)C(Cl)=C1Cl | criterion met

----------
assay_comment: chemical genetic growth profiling, strain panel (AID 1159580);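 note: tested at 20 µM; growth read once vehicle control cultures reached saturation at 30 °C; 1 = growth at the plate median or of vehicle wells; lower values mean less growth of the strain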
setup_conditions: S. cerevisiae deletion strains, growth OD, locus YIL066C, strain RNR3, active compounds read low
Screen size: about 5,500 compounds; about 2,000 (36%) were called active. Inconclusive results (about 18%) are left out. The list shows a part of the results.
property_name: normalized growth

molecule | recorded_result
NCCC(O)C(=O)NC1CC(N)C(OC2OC(CN)C(O)C(O)C2N)C(OC2OC(CO)C(O)C2O)C1O (stereo unspecified) | 0.999
NCCCS(=O)(=O)O | 0.975
NC(=O)c1ccc[n+]([C@@H]2O[C@H](COP(=O)([O-])OP(=O)(O)OC[C@H]3O[C@@H](n4cnc5c(N)ncnc54)[C@H](OP(=O)(O)O)[C@@H]3O)[C@@H](O)[C@H]2O)c1 | 1.03
C#CCN(C)Cc1ccccc1 | 0.992
Cc1ncc(CNC(=O)N(CCCl)N=O)c(N)n1 | 1.02
C[C@@H]1O[C@@H](O[C@H]2[C@H](Oc3cc(O)c4c(=O)cc(-c5ccc(O)cc5)oc4c3)O[C@H](CO)[C@@H](O)[C@@H]2O)[C@H](O)[C@H](O)[C@H]1O | 0.994
COc1ccccc1-c1coc2cc(O)ccc2c1=O | 1.01
O=C(O)c1cc2cc(F)ccc2[nH]1 | 1.01
COc1ccc(-c2coc3cc(O)ccc3c2=O)c(OC)c1O | 0.981
COc1ccc(-c2coc3cc(OC)ccc3c2=O)cc1 | 0.807
COC(=O)/C=C/C(C)=C/C=C/C(C)=C/C=C/C=C(C)/C=C/C=C(C)/C=C/C(=O)O | 1.03
Cc1[nH]c2ccccc2c1CN(C)C | 1.02
COc1ccc(-c2coc3cc(O)ccc3c2=O)cc1 | 0.957
O=S(=O)(O)CCS | 1.02
CC(=O)O[C@H]1C[C@@H](OC(C)=O)C(C)(C)C2CC(=O)[C@]3(C)C(CC[C@@]4(C)[C@H](C(=O)O)OC(=O)C5OC543)[C@]21C (stereo partly specified) | 0.957
COc1ccc(-c2coc3cc(O)ccc3c2=O)c(OC)c1 | 0.994
